Molecular target: UniProtKB Q92830
Sequence (Q92830 whole entry): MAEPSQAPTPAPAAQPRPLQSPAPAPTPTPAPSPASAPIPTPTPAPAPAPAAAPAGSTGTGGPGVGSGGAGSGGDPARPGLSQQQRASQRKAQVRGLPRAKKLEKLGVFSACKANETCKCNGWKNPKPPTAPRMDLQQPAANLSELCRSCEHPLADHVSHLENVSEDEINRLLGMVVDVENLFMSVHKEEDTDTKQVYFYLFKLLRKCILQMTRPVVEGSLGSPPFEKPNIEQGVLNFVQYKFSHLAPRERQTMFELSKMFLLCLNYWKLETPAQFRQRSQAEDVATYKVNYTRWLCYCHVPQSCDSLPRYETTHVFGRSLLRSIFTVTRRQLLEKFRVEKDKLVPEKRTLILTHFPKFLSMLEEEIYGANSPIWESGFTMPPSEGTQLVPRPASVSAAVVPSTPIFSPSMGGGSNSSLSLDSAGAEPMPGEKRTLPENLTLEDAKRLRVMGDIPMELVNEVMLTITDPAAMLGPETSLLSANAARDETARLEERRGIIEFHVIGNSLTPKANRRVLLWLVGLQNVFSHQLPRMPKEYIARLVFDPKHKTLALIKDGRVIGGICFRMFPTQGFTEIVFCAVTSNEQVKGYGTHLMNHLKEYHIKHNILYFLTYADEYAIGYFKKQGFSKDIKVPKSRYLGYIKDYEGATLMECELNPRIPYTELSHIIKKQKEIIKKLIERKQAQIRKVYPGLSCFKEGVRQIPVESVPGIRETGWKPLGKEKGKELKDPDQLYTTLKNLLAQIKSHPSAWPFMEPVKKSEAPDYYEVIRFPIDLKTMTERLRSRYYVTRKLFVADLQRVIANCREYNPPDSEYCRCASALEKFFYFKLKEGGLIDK
Assay: KAT2A degradation, Western Blot (Jess), NCI-H1048 cells
Format: cell-based
Parameters: degrader, Western blot (Jess)
Conditions: NCI-H1048 cells, KAT2A, 24 h, Western Blot, vs DMSO; read-out: KAT2A NCI-H1048 DC50
Measured DC50 accompanies every entry in the list below.

- Molecule: "Cc1cc(C2CCC(=O)NC2=O)ccc1N1CCC2(CCN(C(=O)c3ccc([C@H]4C[C@@H](Nc5cnn(C)c(=O)c5Br)CN(C)C4)cc3)CC2)CC1 (stereo partly drawn)"
  Readout Value: "< 0.001 µM"

*Q* Lab note: UniProtKB Q92830 assay, enter DC50 for Cc1ncsc1-c1ccc(CNC(=O)[C@@H]2C[C@@H](O)CN2C(=O)[C@@H](NC(=O)CCCCNC(=O)c2ccc([C@H]3C[C@@H](Nc4cnn(C)c(=O)c4Br)CN(C)C3)cc2)C(C)(C)C)cc1 here
*A* > 0.03 µM

*Q* Lab note: UniProtKB Q92830 assay, enter DC50 for CN1C[C@H](Nc2cnn(C)c(=O)c2Br)C[C@H](c2ccc(C(=O)N3CC(c4ccc5c(c4)C(=O)N(C4CCC(=O)NC4=O)C5=O)C3)cc2)C1 (stereo partly drawn) here
*A* 0.001 to 0.03 µM

----------
Molecular target: KAT2B (Homo sapiens, UniProt Q92831)
Sequence (Q92831 whole entry): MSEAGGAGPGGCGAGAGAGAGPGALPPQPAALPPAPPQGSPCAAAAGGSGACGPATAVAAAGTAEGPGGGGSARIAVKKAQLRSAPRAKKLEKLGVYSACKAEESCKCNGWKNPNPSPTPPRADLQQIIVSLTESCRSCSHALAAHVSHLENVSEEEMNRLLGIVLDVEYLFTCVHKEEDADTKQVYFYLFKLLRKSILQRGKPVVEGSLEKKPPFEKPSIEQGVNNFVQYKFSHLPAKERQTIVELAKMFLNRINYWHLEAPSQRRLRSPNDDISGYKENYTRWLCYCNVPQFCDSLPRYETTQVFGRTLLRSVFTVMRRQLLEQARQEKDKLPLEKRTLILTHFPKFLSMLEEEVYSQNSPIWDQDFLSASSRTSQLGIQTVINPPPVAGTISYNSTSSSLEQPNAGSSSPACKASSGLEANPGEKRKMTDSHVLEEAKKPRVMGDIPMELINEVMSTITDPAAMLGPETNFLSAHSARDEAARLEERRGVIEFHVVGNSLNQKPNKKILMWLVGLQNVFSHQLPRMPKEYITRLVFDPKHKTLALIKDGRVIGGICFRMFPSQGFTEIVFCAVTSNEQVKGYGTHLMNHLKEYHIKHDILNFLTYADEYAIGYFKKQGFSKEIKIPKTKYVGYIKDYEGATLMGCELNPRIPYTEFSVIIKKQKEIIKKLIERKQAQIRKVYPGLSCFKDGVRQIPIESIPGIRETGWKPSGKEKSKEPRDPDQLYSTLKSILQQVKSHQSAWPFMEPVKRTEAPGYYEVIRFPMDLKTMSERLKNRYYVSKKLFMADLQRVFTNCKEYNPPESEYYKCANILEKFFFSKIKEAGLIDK
Test: KAT2B degradation, Western Blot (Jess), NCI-H1048 cells
Format: cell-based
Set-up: degrader, Western blot (Jess)
Settings: NCI-H1048 cells, KAT2B, 24 h, Western Blot, vs DMSO; read-out: KAT2B NCI-H1048 DC50
Text: MOLM-13 cells or NCI-H1048 cells were used for Western Blot analysis of KAT2A degradation. KAT2B degradation can be measured in a similar manner with NCI-H1048 cells. […] MOLM-13 cells or NCI-H1048 cells were washed with PBS, then lysed with RIPA buffer containing 1×protease and phosphatase inhibitors (SantaCruz Biotechnologies Cat #sc-24948A). […] Protein was quantified via Bradford assay. […] Signal was detected by chemiluminescence. […]
Test Readout: DC50

*Q* Report DC50 for CN1C[C@H](Nc2cnn(C)c(=O)c2Br)C[C@H](c2ccc(C(=O)N3CCC4(CC3)CCN(c3ccc(NC5CCC(=O)NC5=O)c(F)c3)CC4)cc2)C1 (stereo partly drawn)
*A* 1 to 30 nM

*Q* Report DC50 for Cc1c(N[C@@H]2C[C@H](c3ccc(C(=O)N4CCC5(CC4)CCN(c4cc(C(F)(F)F)c(C6CCC(=O)NC6=O)cn4)CC5)cc3)CN(C)C2)cnn(C)c1=O (stereo partly drawn)
*A* 1 to 30 nM

*Q* Report DC50 for CN1C[C@H](Nc2cnn(C)c(=O)c2Cl)C[C@H](c2ccc(C(=O)N3CCC(Oc4ccc(C5CCC(=O)NC5=O)c(F)c4)CC3)cc2)C1 (stereo partly drawn)
*A* 1 to 30 nM

*Q* Report DC50 for CN1C[C@H](Nc2cnn(C)c(=O)c2Br)C[C@H](c2ccc(C(=O)N3CCC4(CCC(c5ccc(C6CCC(=O)NC6=O)cn5)CC4)CC3)cc2)C1 (stereo partly drawn)
*A* < 1 nM

*Q* Report DC50 for CN1C[C@H](Nc2cnn(C)c(=O)c2Cl)C[C@H](c2ccc(C(=O)N3CCC(c4ccc5c(C6CCC(=O)NC6=O)cncc5c4)CC3)cc2)C1 (stereo partly drawn)
*A* > 30 nM

*Q* Report DC50 for CN1C[C@H](Nc2cnn(C)c(=O)c2Br)C[C@H](c2ccc(CN3CCN(c4cccc(C5CCC(=O)NC5=O)c4)CC34CC4)cc2)C1 (stereo partly drawn)
*A* 1 to 30 nM
